Quick reference: IC50 of the listed items.
Subject of test: 5-HT2 receptor (Rattus norvegicus, UniProt P14842)
Sequence (P14842 whole entry): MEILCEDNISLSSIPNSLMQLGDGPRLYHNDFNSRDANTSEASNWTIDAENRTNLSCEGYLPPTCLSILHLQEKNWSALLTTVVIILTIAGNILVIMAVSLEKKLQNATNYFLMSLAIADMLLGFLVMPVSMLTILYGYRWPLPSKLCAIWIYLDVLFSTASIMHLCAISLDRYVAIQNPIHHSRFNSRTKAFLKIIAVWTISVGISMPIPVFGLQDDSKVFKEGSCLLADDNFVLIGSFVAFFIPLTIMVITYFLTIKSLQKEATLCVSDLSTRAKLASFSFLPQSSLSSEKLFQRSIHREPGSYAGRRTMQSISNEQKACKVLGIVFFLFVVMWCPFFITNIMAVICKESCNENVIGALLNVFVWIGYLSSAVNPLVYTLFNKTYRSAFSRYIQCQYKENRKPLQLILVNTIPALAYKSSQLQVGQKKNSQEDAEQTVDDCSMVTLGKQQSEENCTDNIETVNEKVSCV
Experiment description: 5-HT2 radioligand binding assay ([3H]ketanserin displacement)
Set-up: species or system rat (Sprague-Dawley cerebral cortex)
Condition label: rat cerebral cortex; tritiated ketanserin 1 nM; 37° C.; read-out: 5HT2 IC50 (binding displacement)
Counter-ions that a name gives are not always drawn.
Quick note: give the figure in nM, leave out the unit.

Consider the reported IC50 for these molecules:
| Molecule | Subject of test | Number |
| --- | --- | --- |
| COc1ccc([C@@H](C)[C@@H]2NCCc3c2[nH]c2cc(C)c(C)cc32)cc1OC (relative stereo) | 5-HT2 receptor (Rattus norvegicus, UniProt P14842) | 173 |
| CC[C@H](c1ccc(OC)c(OC)c1)[C@@H]1NCCc2c1[nH]c1ccc(C)cc21 (relative stereo) | 5-HT2 receptor (Rattus norvegicus, UniProt P14842) | 178 |
| CCCOc1ccc(CC2NCCc3c2[nH]c2ccc(C)cc32)cc1OC (stereo not drawn) | 5-HT2 receptor (Rattus norvegicus, UniProt P14842) | 385 |

Challenge: Look up IC50: COc1ccc(CC2NCCc3c2[nH]c2ccc(C)cc32)cc1OC (stereo not drawn) [Example 20, hydrochloride]
Response given: 129

Challenge: Please answer likewise for COc1ccc(CC2NCCc3c2[nH]c2ccc(C)c(F)c32)cc1OC (stereo not drawn)
Response given: 141

Challenge: Please answer likewise for COc1ccc(CC2NCCc3c2[nH]c2c3ccc3ccccc32)cc1OC (stereo not drawn)
Response given: 219

Challenge: Please answer likewise for COc1ccc([C@@H](C)[C@@H]2NCCc3c2[nH]c2ccc(C)cc32)cc1OC (relative stereo)
Response given: 293

====

Subject of test: 5-HT2 receptor (Rattus norvegicus, UniProt P14842)
Experiment description: 5-HT2 radioligand binding assay ([3H]ketanserin displacement)
Set-up: species or system rat (Sprague-Dawley cerebral cortex)
Where a name gives a salt, the structure may show the parent alone.
Quick reference: IC50 of the listed items.
Please state the value followed by its unit.

Consider the reported IC50 for these molecules:
| Molecule | IC50 |
| --- | --- |
| COc1ccc(CC2NCCc3c2[nH]c2c(Br)cccc32)cc1OC (stereo not shown) [Example 2, hydrochloride] | 67 nM |
| COc1cc(CC2NCCc3c2[nH]c2ccc(C)cc32)cc(OC)c1OC (stereo not shown) [Example 21, hydrochloride] | 1080 nM |
| COc1cc(CC2NCCc3c2[nH]c2ccc(C)cc32)cc(N)c1OC (stereo not shown) [Example 30, dihydrochloride] | 792 nM |

Now for another entry.
Challenge: Item COc1ccc(CC2NCCc3c2[nH]c2ccc(C)cc32)c(Cl)c1OC (stereo not shown) [Example 36, hydrochloride] with 5-HT2 receptor (Rattus norvegicus, UniProt P14842) - IC50?
Response given: 100 nM

====

Subject of test: UniProtKB A0AAA9SBU1
Sequence (A0AAA9SBU1 33-457): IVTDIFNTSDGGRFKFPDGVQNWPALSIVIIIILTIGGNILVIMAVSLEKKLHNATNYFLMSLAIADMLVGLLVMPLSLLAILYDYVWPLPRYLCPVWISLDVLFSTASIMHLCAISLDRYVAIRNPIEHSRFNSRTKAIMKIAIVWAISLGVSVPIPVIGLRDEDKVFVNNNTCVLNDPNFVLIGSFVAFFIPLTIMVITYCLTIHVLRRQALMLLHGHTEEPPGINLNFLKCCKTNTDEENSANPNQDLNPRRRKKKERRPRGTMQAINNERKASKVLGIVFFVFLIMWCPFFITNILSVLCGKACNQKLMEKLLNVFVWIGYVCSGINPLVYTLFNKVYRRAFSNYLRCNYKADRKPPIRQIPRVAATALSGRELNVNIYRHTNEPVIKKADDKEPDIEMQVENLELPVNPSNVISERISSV
Structures can show the parent of a compound that is named as a salt.
Attribute measured: IC50
Please state the value followed by its unit.

Challenge: Look up IC50: COc1c(O)ccc(CC2NCCc3c2[nH]c2ccc(C)cc32)c1Cl (stereo not drawn) [Example 37, hydrochloride]
Response given: 29 nM

Challenge: Please answer likewise for COc1ccc(CC2NCCc3c2[nH]c2c(Br)c(C)ccc32)cc1OC.Cl (stereo not drawn) [Example 7, hydrochloride]
Response given: 5.1 nM

Challenge: Please answer likewise for COc1ccc(CC2NCCc3c2[nH]c2ccc(C)cc32)cc1OC (stereo not drawn) [Example 20, hydrochloride]
Response given: 100 nM

Challenge: Please answer likewise for COc1ccc(CC2NCCc3c2[nH]c2c(Br)cc(Br)cc32)cc1OC (stereo not drawn)
Response given: 29 nM

Challenge: Please answer likewise for COc1ccc(CC2c3[nH]c4ccc(C(C)C)cc4c3CCN2C)cc1OC (stereo not drawn)
Response given: 452 nM

====

Quick reference: log10(IC50) of the listed items.
Subject of test: 5-HT2 receptor (Rattus norvegicus)
Experiment description: 5-HT2 radioligand binding assay ([3H]ketanserin displacement)
Parameters: species or system rat (Sprague-Dawley cerebral cortex)
Where a name gives a salt, the structure may show the parent alone.
Base-10 log of IC50, unit µM.

| Compound | log10(IC50) |
| --- | --- |
| COc1ccc(CC2NCCc3c2[nH]c2ccc(C)cc32)c(OC)c1OC (centres unmarked) [Example 22, hydrochloride] | 0.15 |
| COc1ccc(CC2NCCc3c2[nH]c2c(Br)cc(C)cc32)cc1OC.Cl (centres unmarked) [Example 4, hydrochloride] | -0.88 |

Now for another entry.
Challenge: Look up log10(IC50): COc1c(O)ccc(CC2NCCc3c2[nH]c2ccc(C)cc32)c1Cl (centres unmarked) [Example 37, hydrochloride]
Response given: -1.00

====

Subject of test: 5-HT2 receptor (Rattus norvegicus, UniProt P14842)
Experiment description: 5-HT2 radioligand binding assay ([3H]ketanserin displacement)
Design: species or system rat (Sprague-Dawley cerebral cortex)
Condition label: rat cerebral cortex; tritiated ketanserin 1 nM; 37° C.; read-out: 5HT2 IC50 (binding displacement)
Attribute measured: pIC50
Interpret pIC50 as the negative base-10 log of the concentration measured in mol/L.

| Compound | pIC50 |
| --- | --- |
| COc1ccc(CC2NCCc3c2[nH]c2c(C)cccc32)cc1OC (stereo not shown) | 6.51 |

Now for another entry.
Challenge: Item COc1ccc(CC2NCCc3c2[nH]c2c(Br)cc(Br)cc32)cc1OC (stereo not shown) with 5-HT2 receptor (Rattus norvegicus, UniProt P14842) - pIC50?
Response given: 6.05

====

Quick reference: pIC50 of the listed items.
Subject of test: 5-HT2 receptor (Rattus norvegicus)
Experiment description: 5-HT2 radioligand binding assay ([3H]ketanserin displacement)
Parameters: species or system rat (Sprague-Dawley cerebral cortex)
Condition label: rat cerebral cortex; tritiated ketanserin 1 nM; 37° C.; read-out: 5HT2 IC50 (binding displacement)
Interpret pIC50 as the negative base-10 log of the concentration measured in mol/L.

Consider the reported pIC50 for these compounds:
| Compound | Attribute measured | Number |
| --- | --- | --- |
| CCc1ccc2[nH]c3c(c2c1)CCNC3Cc1ccc(OC)c(OC)c1 (stereo not drawn) | pIC50 | 6.54 |
| CCc1ccc2[nH]c3c(c2c1)CCN[C@H]3[C@H](C)c1ccc(OC)c(OC)c1 (relative stereo) | pIC50 | 6.68 |
| COc1cc(CC2NCCc3c2[nH]c2ccc(C)cc32)cc(I)c1OC (stereo not drawn) | pIC50 | 6.00 |
| COc1ccc(CC2NCCc3c2[nH]c2ccc(Br)cc32)cc1OC (stereo not drawn) | pIC50 | 6.54 |
| COc1ccc(CC2NCCc3c2[nH]c2c(OC)cccc32)cc1OC (stereo not drawn) | pIC50 | 6.59 |
| COc1ccc(CC2NCCc3c2[nH]c2ccc(C(C)C)cc32)cc1OC (stereo not drawn) | pIC50 | 6.36 |
| COc1ccc(CC2NCCc3c2[nH]c2cc(C)c(C)cc32)cc1OC (stereo not drawn) | pIC50 | 5.68 |

Challenge: Look up pIC50: COc1ccc(CC2NCCc3c2[nH]c2c(F)cc(F)cc32)cc1OC (stereo not drawn)
Response given: 6.77

====

Subject of test: 5-HT1c receptor (Bos taurus, UniProt A0AAA9SBU1)
Sequence (A0AAA9SBU1 33-457): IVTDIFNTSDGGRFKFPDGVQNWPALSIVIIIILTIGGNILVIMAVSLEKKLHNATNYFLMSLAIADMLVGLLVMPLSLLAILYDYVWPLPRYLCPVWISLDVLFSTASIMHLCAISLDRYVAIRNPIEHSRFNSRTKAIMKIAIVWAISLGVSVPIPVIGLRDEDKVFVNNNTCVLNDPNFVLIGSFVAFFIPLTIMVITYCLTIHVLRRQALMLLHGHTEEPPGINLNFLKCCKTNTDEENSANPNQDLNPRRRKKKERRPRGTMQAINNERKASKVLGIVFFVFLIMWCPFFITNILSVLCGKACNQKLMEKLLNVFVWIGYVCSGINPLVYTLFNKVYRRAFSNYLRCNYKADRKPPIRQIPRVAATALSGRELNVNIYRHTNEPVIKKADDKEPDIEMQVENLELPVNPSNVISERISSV
Structures can show the parent of a compound that is named as a salt.
Attribute measured: pIC50
Interpret pIC50 as the negative base-10 log of the concentration measured in mol/L.

| Molecule | Subject of test | pIC50 |
| --- | --- | --- |
| COc1ccc([C@@H](C)[C@@H]2NCCc3c2[nH]c2cc(C)c(C)cc32)cc1OC (relative stereo) | 5-HT1c receptor (Bos taurus, UniProt A0AAA9SBU1) | 6.90 |
| COc1ccc(OC)c(CC2NCCc3c2[nH]c2ccc(C)cc32)c1 (stereo not drawn) [Example 25, hydrochloride] | 5-HT1c receptor (Bos taurus, UniProt A0AAA9SBU1) | 7.10 |
| COc1ccc(CC2NCCc3c2[nH]c2ccc(C)cc32)cc1F (stereo not drawn) [Example 34, hydrochloride] | 5-HT1c receptor (Bos taurus, UniProt A0AAA9SBU1) | 7.02 |
| CCCOc1ccc(CC2NCCc3c2[nH]c2ccc(C)cc32)cc1OC (stereo not drawn) | 5-HT1c receptor (Bos taurus, UniProt A0AAA9SBU1) | 6.97 |
| COc1ccc(CC2NCCc3c2[nH]c2cc(C)c(C)cc32)cc1OC (stereo not drawn) | 5-HT1c receptor (Bos taurus, UniProt A0AAA9SBU1) | 7.20 |
| CCc1ccc2[nH]c3c(c2c1)CCN[C@H]3[C@H](C)c1ccc(OC)c(OC)c1 (relative stereo) | 5-HT1c receptor (Bos taurus, UniProt A0AAA9SBU1) | 7.07 |

Challenge: Item COc1ccc(CC2NCCc3c2[nH]c2ccc(Br)cc32)cc1OC (stereo not drawn) with 5-HT1c receptor (Bos taurus, UniProt A0AAA9SBU1) - pIC50?
Response given: 6.92

Challenge: Please answer likewise for CCc1ccc2[nH]c3c(c2c1)CCNC3Cc1ccc(OC)c(OC)c1 (stereo not drawn)
Response given: 7.14

Challenge: Please answer likewise for COc1cc(CC2NCCc3c2[nH]c2ccc(C)cc32)cc(OC)c1OC (stereo not drawn) [Example 21, hydrochloride]
Response given: 7.08
